Source: patent US20260070902A1

target: human CCR6 (Homo sapiens, UniProt P51684); test: Human CCR6-CRE reporter assay; assay type: cell-based; parameters: The second construct contained the open reading frame of human CCR6 in the pUNO1 backbone; host or cells: 293FT cells; details: relative -Log IC50; 293FT cells transfected with human CCR6 and CRE-luciferase reporter; 6 μM Forskolin, 6 nM CCL20; 5 h
Property label: IC50 (nM)

Here are 2 compounds together with their reported answers.
Sure, the documented IC50 for CNC(=O)c1ccc(-c2ccc(S(=N)(=O)[C@H]3CC[C@H](Nc4ccc(S(F)(F)(F)(F)F)cc4)CC3)cc2)nc1 (stereo partly shown) [Example 107] is 1580

Sample Cc1[nH]nc2ccc(-c3ccc(S(=O)(=O)N4CCC(Nc5ccc(S(F)(F)(F)(F)F)cc5)CC4)cc3)cc12 [Example 2] ; IC50 observed: 63.1

I. CN(C)C(=O)c1cccc(-c2ccc(S(=N)(=O)[C@H]3CC[C@H](Nc4ccc(S(F)(F)(F)(F)F)cc4)CC3)cc2)c1 (stereo partly shown) [Example 97]
II. Cc1nnc2cnc(-c3ccc(S(=N)(=O)[C@H]4CC[C@H](Nc5ccc(S(F)(F)(F)(F)F)cc5)CC4)cc3)cn12 (stereo partly shown) [Example 170]
(Q) Which gives the smaller IC50 number: I or II ? # reply format: chosen label
(A) II
(II: 501 nM, I: 1000 nM)

###

target: human CCR6 (Homo sapiens); experiment: Human CCR6-CRE reporter assay; format: cell-based; set-up: The second construct contained the open reading frame of human CCR6 in the pUNO1 backbone; host or cells: 293FT cells; settings: relative -Log IC50; 293FT cells transfected with human CCR6 and CRE-luciferase reporter; 6 μM Forskolin, 6 nM CCL20; 5 h
pIC50: −log10 of the molar value.
Property label: pIC50

Would you please look over these solved cases?
// N=S(=O)(c1ccc(-c2ccc3c(c2)C(=O)NCC3)cc1)[C@H]1CC[C@H](Nc2ccc(S(F)(F)(F)(F)F)cc2)CC1 (stereo partly drawn) : pIC50 value = 6.40

Given item N#Cc1c[nH]c2ccc(-c3ccc(S(=O)(=O)[C@H]4CC[C@H](Nc5ccc(S(F)(F)(F)(F)F)cc5)CC4)cc3)cc12 , the value recorded as its pIC50 is 7.40

Entry N#Cc1cnc2ccc(-c3ccc(S(=N)(=O)[C@H]4CC[C@H](Nc5ccc(S(F)(F)(F)(F)F)cc5)CC4)cc3)cn12 (stereo partly drawn) ; pIC50 = 6.80

A. O=C1NCCC12CCN(c1ccc(S(=O)(=O)N3CCC(Nc4ccc(S(F)(F)(F)(F)F)cc4)CC3)cc1)CC2
B. NC(=O)c1cc(-c2ccc(S(=O)(=O)N3CCC(Nc4ccc(S(F)(F)(F)(F)F)cc4)CC3)cc2)ccn1
(Q) Which gives the smaller pIC50 number: A or B ? # answer = label of selected item
(A) A
(A: 6.80, B: 7.10)

###

Target: human CCR6 (Homo sapiens, UniProt P51684)
Sequence (P51684 1-374): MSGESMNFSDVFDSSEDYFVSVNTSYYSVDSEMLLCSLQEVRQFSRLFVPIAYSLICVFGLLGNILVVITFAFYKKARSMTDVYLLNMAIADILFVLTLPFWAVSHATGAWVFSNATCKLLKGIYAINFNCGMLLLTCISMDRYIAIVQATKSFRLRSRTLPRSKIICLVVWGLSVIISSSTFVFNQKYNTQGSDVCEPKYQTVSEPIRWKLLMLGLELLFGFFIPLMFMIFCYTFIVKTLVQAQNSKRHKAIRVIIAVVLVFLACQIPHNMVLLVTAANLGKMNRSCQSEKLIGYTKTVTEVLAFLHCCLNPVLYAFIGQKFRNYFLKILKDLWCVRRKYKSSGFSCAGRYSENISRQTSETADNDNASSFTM
Assay: Human CCR6-CRE reporter assay
Assay type: cell-based
Set-up: The second construct contained the open reading frame of human CCR6 in the pUNO1 backbone; host or cells: 293FT cells
Details: relative -Log IC50; 293FT cells transfected with human CCR6 and CRE-luciferase reporter; 6 μM Forskolin, 6 nM CCL20; 5 h
Property label: IC50 (nM)

# IC50 (compound: CN(C)C(=O)c1ccc(-c2ccc(S(=N)(=O)[C@H]3CC[C@H](Nc4ccc(S(F)(F)(F)(F)F)cc4)CC3)cc2)cc1 (stereo partly drawn) ) is 200

1. O=S(=O)(c1ccc(-c2cc3cn[nH]c3cn2)cc1)[C@H]1CC[C@H](Nc2ccc(S(F)(F)(F)(F)F)cc2)CC1
2. N#Cc1cnc2ccc(-c3ccc(S(=O)(=O)N4CCC(Nc5ccc(S(F)(F)(F)(F)F)cc5)CC4)c(Cl)c3)cn12
(Q) Hi! Which is lower in terms of IC50, the first one 1 or the second one 2 ? Provide the label of your selected option as the answer.
(A) 1
